# Assay method text: Pharmacokinetics in cynomolgus monkeys
# Format: in vivo, cynomolgus monkey
# Experimental parameters: male, cynomolgus monkey, plasma, po; 10 mg/kg NG; read-out: oral clearance (Cl/F) (converted)
Quantity measured: CL/F (mL/min/kg)

> print(dat)
                                   molecule  test.value
1  CC1(C)OB(O)c2cc(NC(=O)c3ccc(F)cc3C(F)(F)F)ccc21 [SCYX-7158]       0.417

###

# Assay method text: Plasma protein binding by rapid equilibrium dialysis
# Type: in vitro ADME
# Experimental parameters: mouse, mouse plasma, 1 µg/mL
Quantity measured: fraction unbound at 4 h, 1 µg/mL

> print(dat)
                                   compound                 quantity.measured  test.value
1  CC1(C)OB(O)c2cc(NC(=O)c3ccc(F)cc3C(F)(F)F)ccc21 [SCYX-7158]  fraction unbound at 4 h, 1 µg/mL      0.0032
